# Tested Target: T1, hPD-1.His (human, UniProt Q15116 25-170)
# T1 construct: the SPR text says only human PD-1; also called human PD-1 (SPR analyte)
# T1 sequence (Q15116 25-170): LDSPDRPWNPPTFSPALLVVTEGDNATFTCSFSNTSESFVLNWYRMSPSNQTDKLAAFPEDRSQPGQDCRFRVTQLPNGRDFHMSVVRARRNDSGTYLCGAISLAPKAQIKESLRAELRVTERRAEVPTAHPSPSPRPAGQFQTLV
# Experiment: SPR (ProteOn XPR36), antibody captured on Protein A, PD-1.His as analyte, 1:1 fit
Readout Label: koff (s⁻¹)

[[record]]
binder = "2C2 (antibody, human IgG4, V domains shown) VH: QVQLVQSGAEVKKPGSSVKVSCKASGFTFTTYYISWVRQAPGQGLEYLGYINMGSGGTNYNEKFKGRVTITADKSTSTAYMELSSLRSEDTAVYYCAIIGYFDYWGQGTMVTVSS VL: DVVMTQSPLSLPVTLGQPASISCRSSQSLLDSDGATYLYWFQQRPGQSPRRLIYLVSTLGSGVPDRFSGSGSGTDFTLKISRVEAEDVGVYYCMQLTHWPYTFGQGTKLEIK"
readout_label = "koff"
measured_number = 0.00414


Just for reference, patent US20230014722A1 is where these values come from.
